molecular target: T1, biotinylated native human ApoC3 (human, UniProt P02656 21-99, biotinylated (site not stated)); assay: SPR, scFv-Fc over biotinylated ApoC3 on SA chip, pH 7.4
T1 construct: also called biotinylated human ApoC3
T1 sequence (P02656 21-99): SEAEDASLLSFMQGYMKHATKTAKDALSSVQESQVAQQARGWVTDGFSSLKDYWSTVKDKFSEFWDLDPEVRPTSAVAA
For each of the binders below, state its koff.
# do not omit the unit; it follows the number

Record koff per entry; entries follow.
1. 5E5VH12_VLWT scFv-Fc (scFv, part only; not given: Linker, domain order, Fc, V domains shown, not shown: another chain or arm of the molecule; a dimerising Fc or GST; small tags and cut ends) VH: QLQLVESGGGLVQPGGSLRLSCAASGFTFGTYSMRWVRQVPRKALEWVSSISTDGGGTAYRDSVKGRFTISRDNAKNTLYLQMNNLKPEDTAIYYCVIHGYSDWGQGTQVTVSS VL: ATMLTQSPGSLSVVPGESASISCKTSQGLVHSDGKTYFYWFLQKPGQSPQQLIYQVSNRASGVPDRFTGSGSGTDFTLKISGVKAEDAGVYYCAQGTYYPHTFGSGTRLEIK
2. 5E5VHWT_VL8 scFv-Fc (scFv, part only; not given: Linker, domain order, Fc, V domains shown, not shown: another chain or arm of the molecule; a dimerising Fc or GST; small tags and cut ends) VH: QLQLVESGGGLVQPGGSLRLSCAASGFTFGTYSMRWVRQVPRKALEWVSSISTDGGGTAYRDSVKGRFTISRDNAKNTLYLQMNNLKPEDTAIYYCVIAGYSDWGQGTQVTVSS VL: ATMLTQSPGSLSVVPGESASISCKTSQGLVHSDGKTYFYWFLQKPGQSPQQLIYQVSNRASGVPDRFTGSGSGTDFTLKISGVKAEDAGVYYCAHGTYYPHTFGSGTRLEIK
3. 5E5WT scFv-Fc (scFv, part only; not given: Linker, domain order, Fc, V domains shown, not shown: another chain or arm of the molecule; a dimerising Fc or GST; small tags and cut ends) VH: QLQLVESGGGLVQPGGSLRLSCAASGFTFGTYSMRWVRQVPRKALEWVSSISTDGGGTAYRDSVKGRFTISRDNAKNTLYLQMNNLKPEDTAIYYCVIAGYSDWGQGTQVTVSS VL: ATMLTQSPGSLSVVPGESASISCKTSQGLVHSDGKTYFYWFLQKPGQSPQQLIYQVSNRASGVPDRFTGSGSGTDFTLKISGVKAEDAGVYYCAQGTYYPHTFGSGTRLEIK
4. 5E5VH5_VLWT scFv-Fc (scFv, part only; not given: Linker, domain order, Fc, V domains shown, not shown: another chain or arm of the molecule; a dimerising Fc or GST; small tags and cut ends) VH: QLQLVESGGGLVQPGGSLRLSCAASGFTFGTYSMRWVRQVPRKALEWVSSIHTDGGGTAYRDSVKGRFTISRDNAKNTLYLQMNNLKPEDTAIYYCVIAGYSDWGQGTQVTVSS VL: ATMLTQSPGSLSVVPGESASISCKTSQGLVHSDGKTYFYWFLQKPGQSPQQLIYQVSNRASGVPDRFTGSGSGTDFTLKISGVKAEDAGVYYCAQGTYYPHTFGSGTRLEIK

# output
1. 0.000157 s⁻¹
2. 0.000221 s⁻¹
3. 1.75e-05 s⁻¹
4. 0.000105 s⁻¹

Where do the numbers come from? From patent US20200239555A1.
